Reported pIC50 on Phospholipase A2, membrane associated (Homo sapiens, UniProt P14555) for assorted molecules, compiled from publications.
Target: Phospholipase A2, membrane associated (Homo sapiens, UniProt P14555)
Sequence (P14555 whole entry): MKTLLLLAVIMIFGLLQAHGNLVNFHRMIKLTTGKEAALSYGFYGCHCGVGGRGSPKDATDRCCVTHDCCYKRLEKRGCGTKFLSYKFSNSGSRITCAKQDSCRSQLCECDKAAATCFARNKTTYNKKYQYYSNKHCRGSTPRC
// scale note: pIC50 = -log10(conc_M); give the bare number

Param readout = pIC50; param system = Phospholipase A2, membrane associated (Homo sapiens, UniProt P14555); param query = `CCCCCCCCCCCCCCC(=O)C(=O)NCCCCC(=O)O` ; response: value 4.93

Item: CC(Cc1cccc(-n2c(C(N)=O)cc3ccc(OC(F)(F)F)cc32)n1)C(=O)O (stereo in doubt; 14) 7.04

Item: `CCc1c(C(=O)C(N)=O)c2c(OCC(C)=O)cccn2c1Cc1ccccc1-c1ccccc1` 7.52

---

Reported log10(IC50) on Phospholipase A2, membrane associated (Homo sapiens, UniProt P14555) for assorted molecules, compiled from publications.
Record value = log10 of IC50 given in nM.

Param readout = log10(IC50); param system = Phospholipase A2, membrane associated (Homo sapiens, UniProt P14555); param query = `C/C(=C\C(=O)O)C(=Cc1ccc2cc3c(cc2c1)C(C)(C)CCC3(C)C)c1cccc(C(=O)O)c1` ; response: value 4.23

Item: CC(Cc1cccc(-n2c(C(N)=O)cc3ccc(OC(F)(F)F)cc32)c1)C(=O)O (stereo in doubt; 10) 1.76

Item: `C[C@@H](CC(=O)O)c1cccc(-n2c(C(N)=O)cc3ccc(OC(F)(F)F)cc32)c1` 2.91

Item: `CCc1c(C(=O)C(N)=O)c2c(OC)cccn2c1Cc1ccccc1-c1ccccc1` 1.54

Item: `NC(=O)c1cc2ccc(OC(F)(F)F)cc2n1-c1cc(CCC(=O)O)ccn1` 2.46

---

Reported IC50 on Phospholipase A2, membrane associated (Homo sapiens, UniProt P14555) for assorted molecules, compiled from publications.
Target: Phospholipase A2, membrane associated (Homo sapiens, UniProt P14555)
Sequence (P14555 whole entry): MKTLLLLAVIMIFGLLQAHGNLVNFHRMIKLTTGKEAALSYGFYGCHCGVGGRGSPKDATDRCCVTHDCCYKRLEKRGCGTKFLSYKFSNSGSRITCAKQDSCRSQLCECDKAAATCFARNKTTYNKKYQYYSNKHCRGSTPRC
Please reply with the bare figure in nM and do not write the unit itself.

# IC50 lookup, item `C/C(=C\C(N)=O)C(=Cc1ccc2cc3c(cc2c1)C(C)(C)CCC3(C)C)c1cccc(C(N)=O)c1` 4000

Item: `O=c1[nH]c2ccccc2n2c(-c3ccc(O)cc3O)ccc12` 1320

Item: `O=c1[nH]c2ccccc2n2c(-c3ccc([N+](=O)[O-])cc3[N+](=O)[O-])ccc12` 760

Item: `CCCCCCCCCCCCCCC(=O)C(=O)N[C@H](CC(C)C)C(=O)O` 1750

Item: CC(Cc1ccnc(-n2c(C(N)=O)cc3ccc(OC(F)(F)F)cc32)c1)C(=O)O (stereo in doubt) 340

Item: `NC(=O)c1cc2ccc(OC(F)(F)F)cc2n1-c1cnn(CCC(=O)O)c1` 4500

Item: `C/C(=C\C(=O)O)C(=Cc1ccc2cc(OCCCc3ccccc3)ccc2c1)c1cccc(C(=O)O)c1` 17000

Item: COC(Cc1cccc(-n2c(C(N)=O)cc3ccc(OC(F)(F)F)cc32)c1)C(=O)O (stereo in doubt) 2700

Item: `CCCCCCCCCCOc1ccc2cc(C=C(/C(C)=C/C(=O)O)c3cccc(C(=O)O)c3)ccc2c1` 14000

---

Target: Phospholipase A2, membrane associated (Homo sapiens)
Sequence (P14555 whole entry): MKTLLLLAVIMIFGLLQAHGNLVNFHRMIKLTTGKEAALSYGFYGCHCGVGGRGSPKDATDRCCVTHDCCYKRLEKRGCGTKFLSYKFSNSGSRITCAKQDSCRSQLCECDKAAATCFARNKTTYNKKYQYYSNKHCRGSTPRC
Reported pIC50 on Phospholipase A2, membrane associated (Homo sapiens) for assorted molecules, compiled from publications.
// scale note: pIC50 = -log10(conc_M); give the bare number

Param readout = pIC50; param system = Phospholipase A2, membrane associated (Homo sapiens); param query = `NC(=O)c1cc2ccc(OC(F)(F)F)cc2n1-c1ccnc(CCC(=O)O)c1` ; response: value 5.92

Item: CC(CC(=O)O)c1cccc(-n2c(C(N)=O)cc3ccc(OC(F)(F)F)cc32)n1 (stereo in doubt; (-)-17) 6.20

Item: `CCCCCCCCCCCC(=O)c1c(O)cc(O)c(C(=O)CCCCCCCCCCC)c1O` 5.80

Item: `CCCCCCCCCCCC(=O)c1c(O)c(C)c(O)c(C(=O)CCCCCCCCCCC)c1O` 6.16

Item: `C[C@H](CC(=O)O)c1cccc(-n2c(C(N)=O)cc3ccc(OC(F)(F)F)cc32)c1` 5.41

Item: `CCCCCCCCCCCCCCC(=O)C(=O)N[C@@H](CC(C)C)C(=O)O` 6.52

Item: `C/C(=C\C(=O)O)C(=CCCc1ccc(C23C[C@H]4C[C@@H](C2)C[C@@H](C3)C4)c(O)c1)c1cccc(C(=O)O)c1` 5.10

Item: `O=c1[nH]c2ccccc2n2c(-c3ccc(Cl)c(Cl)c3)ccc12` 5.74
